# assayed_system: human CB2 receptor (Homo sapiens, UniProt P34972)
# Construct: host or cells: CHO-K1 (Chinese hamster ovary) cells, stably transfected; membranes prepared in house
# Sequence (P34972 whole entry): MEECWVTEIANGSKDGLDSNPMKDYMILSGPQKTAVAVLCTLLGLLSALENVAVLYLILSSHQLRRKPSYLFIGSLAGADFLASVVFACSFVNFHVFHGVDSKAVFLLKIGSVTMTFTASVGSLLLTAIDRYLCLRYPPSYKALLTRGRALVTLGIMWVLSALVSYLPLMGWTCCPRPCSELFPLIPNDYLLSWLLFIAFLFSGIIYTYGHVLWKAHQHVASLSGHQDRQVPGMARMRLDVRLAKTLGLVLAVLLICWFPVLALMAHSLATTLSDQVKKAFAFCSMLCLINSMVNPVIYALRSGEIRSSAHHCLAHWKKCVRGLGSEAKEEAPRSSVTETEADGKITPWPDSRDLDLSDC
# assay_method_text: CB2 radioligand competitive binding assay ([3H]CP 55,940 displacement)
# setup_conditions: fold difference between CB1 and CB2 binding, printed in column of receptor with higher affinity; 1.00 in both = same affinity
measured_parameter: Selectivity CB2
# answer = number (no unit)

Record excerpt, results attached:
C=C(C)C1CCC(C)=CC1c1c(O)cc(C(C)(C)CCCCCC)cc1OCOC(=O)C(C)(C)C (centres unmarked) [Compound 21d] = 1.25
C=C(C)C1CCC(C)=CC1c1c(O)cc(CCCCC)cc1OCOCCOC (centres unmarked) = 1.59
C=C(C)C1CCC(C)=CC1c1c(OCOCCOC)cc(CCCCC)cc1OCOCCOC (centres unmarked) = 2.50
C=C(C)[C@@H]1CCC(C)=C[C@H]1c1c(O)cc(CCC)cc1OCOC(=O)C(C)(C)C [Compound 23d] = 2.50
CCCCCc1cc(O)c(C2C=C(C)CCC2)c(OCOC(=O)C(C)(C)C)c1 (centres unmarked) = 8.85

Exercise: What measured Selectivity CB2 is associated with CCCCCc1cc(OCN(C(=O)OC)c2ccccc2)c(C2C=C(C)CCC2)c(OCN(C(=O)OC)c2ccccc2)c1 (centres unmarked) on human CB2 receptor (Homo sapiens, UniProt P34972)?
Solution: 62.50

Exercise: Query for human CB2 receptor (Homo sapiens, UniProt P34972): what Selectivity CB2 does the record show for CCCCCc1cc(O)c(-c2cccc(C)c2)c(OCOC(=O)OCC)c1 ?
Solution: 7.89

Exercise: # get_value(readout= Selectivity CB2, system= human CB2 receptor (Homo sapiens, UniProt P34972)) for CCCCCc1cc(OCOC(=O)C(C)(C)C)c(-c2cccc(C)c2)c(OCOC(=O)C(C)(C)C)c1
Solution: 7.14

###

# assayed_system: human CB2 receptor (Homo sapiens, UniProt P34972)
# Construct: host or cells: CHO-K1 (Chinese hamster ovary) cells, stably transfected; membranes prepared in house
# assay_method_text: CB2 radioligand competitive binding assay ([3H]CP 55,940 displacement)
# setup_conditions: [3H]CP 55,940 displacement, membranes of CHO-K1 cells expressing human CB2 receptor; read-out: CB2 IC50
pIC50: −log10 of the molar value.
measured_parameter: pIC50

# example entries with known answers
C=C(C)C1CCC(C)=CC1c1c(OCN(C(=O)OC)c2ccccc2)cc(C(C)(C)CCCCCC)cc1OCN(C(=O)OC)c1ccccc1 (stereo not drawn) = 5.00 to 6.00
CCCCCc1cc(O)c(C2C=C(C)CCC2)c(OCOC(=O)OCC)c1 (stereo not drawn) = 6.00 to 7.30
C=C(C)[C@@H]1CCC(C)=C[C@H]1c1c(O)cc(C(C)(C)CCCCCC)cc1OCOC(=O)OCC [Compound 22d] = > 7.30
C=C(C)[C@@H]1CCC(C)=C[C@H]1c1c(O)cc(CCC)cc1OCOC(=O)C(C)(C)C [Compound 23d] = 5.00 to 6.00
CCCCCc1cc(O)c(C2C=C(C)CCC2)c(OCOC(=O)C(C)(C)C)c1 (stereo not drawn) = > 7.30
CCCCCc1cc(O)c(-c2cccc(C)c2)c(OCOCCOC)c1 = 6.00 to 7.30

Exercise: Fill in: pIC50 of CCCCCc1cc(OCN(C(=O)OC)c2ccccc2)c(C2C=C(C)CCC2)c(OCN(C(=O)OC)c2ccccc2)c1 (stereo not drawn) is ___
Solution: 6.00 to 7.30

Exercise: # get_value(readout='pIC50', item= C=C(C)C1CCC(C)=CC1c1c(O)cc(CCCCC)cc1OCOC(=O)C(C)(C)C (stereo not drawn) )
Solution: 6.00 to 7.30

Exercise: Given the compound CCCCCc1cc(O)c(C2C=C(C)CCC2)c(OCOCC)c1 (stereo not drawn) [Compound 17c] , what is its reported pIC50?
Solution: 6.00 to 7.30

Exercise: Record request: pIC50 value, item C=C(C)C1CCC(C)=CC1c1c(OCOCC)cc(CCCCC)cc1OCOCC (stereo not drawn)
Solution: 6.00 to 7.30

Exercise: Please report the recorded pIC50 for CCCCCc1cc(O)c(-c2cccc(C)c2)c(OCN(C(=O)OC)c2ccccc2)c1 [Compound 14a] .
Solution: 6.00 to 7.30

Exercise: Given the compound CCCCCc1cc(O)c(C2C=C(C)CCC2)c(OCN(C(=O)OC)c2ccccc2)c1 (stereo not drawn) [Compound 14c] , what is its reported pIC50?
Solution: 5.00 to 6.00

###

# assayed_system: human CB2 receptor (Homo sapiens)
# Construct: host or cells: CHO-K1 (Chinese hamster ovary) cells, stably transfected; membranes prepared in house
# assay_method_text: CB2 radioligand competitive binding assay ([3H]CP 55,940 displacement)
# setup_conditions: fold difference between CB1 and CB2 binding, printed in column of receptor with higher affinity; 1.00 in both = same affinity
measured_parameter: Selectivity CB2
Number, no unit, nothing else.

Please review the entries below; each comes with its answer.
C=C(C)C1CCC(C)=CC1c1c(OCOCC)cc(C(C)(C)CCCCCC)cc1OCOCC (centres unmarked) [19′d] = 2.00
C=C(C)[C@@H]1CCC(C)=C[C@H]1c1c(O)cc(CCC)cc1OCOC(=O)OCC [Compound 24d] = 1.52
CCCCCc1cc(O)c(-c2cccc(C)c2)c(OCOCCOC)c1 [Compound 2a] = 11.11
CCCCCc1cc(O)c(C2C=C(C)CCC2)c(OCOC(=O)OCC)c1 (centres unmarked) [Compound 5c] = 9.09

Exercise: Would you mind telling me what Selectivity CB2 value was observed for C=C(C)[C@@H]1CCC(C)=C[C@H]1c1c(O)cc(C(C)(C)CCCCCC)cc1OCOC(=O)OCC [Compound 22d] ?
Solution: 1.67

Exercise: Which measured Selectivity CB2 value corresponds to CCCCCc1cc(O)c(-c2cccc(C)c2)c(OCN(C(=O)OC)c2ccccc2)c1 [Compound 14a] ?
Solution: 9.84

###

// reported pIC50 per item
# assayed_system: human CB1 receptor (Homo sapiens, UniProt P21554)
# Construct: host or cells: CHO-K1 (Chinese hamster ovary) cells, stably transfected; membranes prepared in house
# Sequence (P21554 whole entry): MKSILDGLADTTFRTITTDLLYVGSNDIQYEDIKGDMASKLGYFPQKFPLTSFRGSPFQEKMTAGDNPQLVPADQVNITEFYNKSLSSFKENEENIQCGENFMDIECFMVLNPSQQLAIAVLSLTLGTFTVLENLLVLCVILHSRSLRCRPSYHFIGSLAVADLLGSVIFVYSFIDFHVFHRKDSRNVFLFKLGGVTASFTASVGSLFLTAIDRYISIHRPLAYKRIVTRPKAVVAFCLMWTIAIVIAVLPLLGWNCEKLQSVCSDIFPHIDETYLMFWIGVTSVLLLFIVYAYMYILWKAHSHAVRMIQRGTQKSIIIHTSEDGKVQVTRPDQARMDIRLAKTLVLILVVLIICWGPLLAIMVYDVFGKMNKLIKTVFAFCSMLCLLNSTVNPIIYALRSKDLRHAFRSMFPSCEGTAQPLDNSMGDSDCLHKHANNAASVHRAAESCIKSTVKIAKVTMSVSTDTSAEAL
# assay_method_text: CB1 radioligand competitive binding assay ([3H]CP 55,940 displacement)
# setup_conditions: [3H]CP 55,940 displacement, membranes of CHO-K1 cells expressing human CB1 receptor; read-out: CB1 IC50
pIC50: −log10 of the molar value.

Check out these entries, answers already filled in.
CCCCCc1cc(OCN(C(=O)OC)c2ccccc2)c(C2C=C(C)CCC2)c(OCN(C(=O)OC)c2ccccc2)c1 (centres unmarked) = 5.00 to 6.00
C=C(C)C1CCC(C)=CC1c1c(O)cc(CCCCC)cc1OCOC(=O)C(C)(C)C (centres unmarked) = 6.00 to 7.30
CCCCCc1cc(OCOCCOC)c(-c2cccc(C)c2)c(OCOCCOC)c1 = < 5.00
C=C(C)C1CCC(C)=CC1c1c(O)cc(CCCCC)cc1OCOCCOC (centres unmarked) = 5.00 to 6.00
C=C(C)[C@@H]1CCC(C)=C[C@H]1c1c(O)cc(CCC)cc1OCOC(=O)OCC [Compound 24d] = 5.00 to 6.00

Exercise: Sample CCCCCc1cc(O)c(C2C=C(C)CCC2)c(OCOC(=O)C(C)(C)C)c1 (centres unmarked) — what was its pIC50?
Solution: 6.00 to 7.30

Exercise: Record request: pIC50 value, item C=C(C)C1CCC(C)=CC1c1c(OCOCCOC)cc(CCCCC)cc1OCOCCOC (centres unmarked)
Solution: 5.00 to 6.00

Exercise: State the recorded pIC50 for this entry: CCCCCc1cc(OCOC(=O)C(C)(C)C)c(-c2cccc(C)c2)c(OCOC(=O)C(C)(C)C)c1
Solution: 6.00 to 7.30

###

# assayed_system: human CB2 receptor (Homo sapiens)
# Construct: host or cells: CHO-K1 (Chinese hamster ovary) cells, stably transfected; membranes prepared in house
# assay_method_text: CB2 radioligand competitive binding assay ([3H]CP 55,940 displacement)
# setup_conditions: fold difference between CB1 and CB2 binding, printed in column of receptor with higher affinity; 1.00 in both = same affinity
Quick rule for you: Selectivity CB2 under 6 gets criterion met, anything else gets criterion not met.

Exercise: # strict comparison: is reported Selectivity CB2 < 6? input = CCCCCc1cc(OCOCC)c(-c2cccc(C)c2)c(OCOCC)c1
Solution: criterion not met

###

# assayed_system: human CB1 receptor (Homo sapiens)
# Construct: host or cells: CHO-K1 (Chinese hamster ovary) cells, stably transfected; membranes prepared in house
# assay_method_text: CB1 radioligand competitive binding assay ([3H]CP 55,940 displacement)
# setup_conditions: [3H]CP 55,940 displacement, membranes of CHO-K1 cells expressing human CB1 receptor; read-out: CB1 IC50
pIC50: −log10 of the molar value.
measured_parameter: pIC50

Recorded results for 2 molecules are shown here.
CCCCCc1cc(OCN(C(=O)OC)c2ccccc2)c(-c2cccc(C)c2)c(OCN(C(=O)OC)c2ccccc2)c1 [14′a] = 6.00 to 7.30
C=C(C)C1CCC(C)=CC1c1c(OCOC(=O)C(C)(C)C)cc(C(C)(C)CCCCCC)cc1OCOC(=O)C(C)(C)C (stereo not drawn) [21′d] = < 5.00

# context switch: different molecule, same pIC50
Exercise: Suppose we examine the molecule C=C(C)[C@@H]1CCC(C)=C[C@H]1c1c(O)cc(CCC)cc1OCOC(=O)C(C)(C)C [Compound 23d] ; what pIC50 value has been reported?
Solution: 5.00 to 6.00
